B1: library; a variant is named by its letters at N, in order (parent)
chain: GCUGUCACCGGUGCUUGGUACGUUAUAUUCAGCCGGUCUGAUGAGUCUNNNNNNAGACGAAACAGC

Variants of: B1
Experiment: FACS-Seq fitted mean relative fluorescence mCherry/BFP with ligand (log10 relative fluorescence); HEK293T overexpressing SLC46A1; ligand concentration (+) FACS-Seq: 6 mM; higher = higher reporter protein expression
Conditions: with (6R,S)-folinic acid; ligand present: yes
MEASUREMENT_TYPE: FACS-Seq fitted mean (log10)

A selection of reference data follows.
[[record]]
sequence_string = "GCUGUCACCGGUGCUUGGUACGUUAUAUUCAGCCGGUCUGAUGAGUCUACUCAAAGACGAAACAGC"
measurement_type = "FACS-Seq fitted mean (log10)"
recorded_value = 0.365

[[record]]
sequence_string = "GCUGUCACCGGUGCUUGGUACGUUAUAUUCAGCCGGUCUGAUGAGUCUUGUCUGAGACGAAACAGC"
measurement_type = "FACS-Seq fitted mean (log10)"
recorded_value = 0.451

[[record]]
sequence_string = "GCUGUCACCGGUGCUUGGUACGUUAUAUUCAGCCGGUCUGAUGAGUCUACCCGAAGACGAAACAGC"
measurement_type = "FACS-Seq fitted mean (log10)"
recorded_value = 0.537

[[record]]
sequence_string = "GCUGUCACCGGUGCUUGGUACGUUAUAUUCAGCCGGUCUGAUGAGUCUUGUGGAAGACGAAACAGC"
measurement_type = "FACS-Seq fitted mean (log10)"
recorded_value = 0.123

[[record]]
sequence_string = "GCUGUCACCGGUGCUUGGUACGUUAUAUUCAGCCGGUCUGAUGAGUCUAUUUGGAGACGAAACAGC"
measurement_type = "FACS-Seq fitted mean (log10)"
recorded_value = 0.37

[[record]]
sequence_string = "GCUGUCACCGGUGCUUGGUACGUUAUAUUCAGCCGGUCUGAUGAGUCUUGAGAGAGACGAAACAGC"
measurement_type = "FACS-Seq fitted mean (log10)"
recorded_value = 0.526

[[record]]
sequence_string = "GCUGUCACCGGUGCUUGGUACGUUAUAUUCAGCCGGUCUGAUGAGUCUUAAGGGAGACGAAACAGC"
measurement_type = "FACS-Seq fitted mean (log10)"
recorded_value = 0.263

[[record]]
sequence_string = "GCUGUCACCGGUGCUUGGUACGUUAUAUUCAGCCGGUCUGAUGAGUCUUAAUGGAGACGAAACAGC"
measurement_type = "FACS-Seq fitted mean (log10)"
recorded_value = 0.399


Could I get FACS-Seq fitted mean (log10) for every one of these entries?
1. GCUGUCACCGGUGCUUGGUACGUUAUAUUCAGCCGGUCUGAUGAGUCUAAAGCAAGACGAAACAGC
2. GCUGUCACCGGUGCUUGGUACGUUAUAUUCAGCCGGUCUGAUGAGUCUUUUGAGAGACGAAACAGC
3. GCUGUCACCGGUGCUUGGUACGUUAUAUUCAGCCGGUCUGAUGAGUCUGGCACUAGACGAAACAGC
4. GCUGUCACCGGUGCUUGGUACGUUAUAUUCAGCCGGUCUGAUGAGUCUUUUUGGAGACGAAACAGC

Resp:
1: 0.575; 2: 0.41; 3: -0.0531; 4: 0.473

Reference for the values: the supplement of paper PMC6757056
